# study-system: human GPRC5D (human, UniProt Q9NZD1 1-345)
# Sequence (Q9NZD1 whole entry): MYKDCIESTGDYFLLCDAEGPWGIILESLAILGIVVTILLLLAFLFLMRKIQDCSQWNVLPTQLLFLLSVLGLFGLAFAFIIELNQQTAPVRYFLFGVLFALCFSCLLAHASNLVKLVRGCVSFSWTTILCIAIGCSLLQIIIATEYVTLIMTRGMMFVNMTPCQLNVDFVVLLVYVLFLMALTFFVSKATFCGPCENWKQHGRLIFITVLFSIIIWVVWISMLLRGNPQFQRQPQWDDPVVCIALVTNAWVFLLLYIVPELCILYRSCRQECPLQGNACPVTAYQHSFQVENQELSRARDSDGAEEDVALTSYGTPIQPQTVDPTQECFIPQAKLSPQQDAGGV
# assay-info: cell-based or functional assay
Measured CAR-J2 EC50 (PGLALA-CAR-J activation, L363 target cells) values are reported for all entries that follow.
Report as: number unit

| binder | val |
| --- | --- |
| P1AE5742 (antibody, V domains shown) VH: EVQLVESGGGVVQPGRSLRLSCAASGFSFSNYGMAWVRQAPGKGLEWVASISTGGGNTYYRDSVKGRFTISRDNAKNTLYLQMNSLRAEDTAVYYCTRHDRGGLYWGQGTMVTVSS VL: DIVMTQSPDSLAVSLGERATINCKSSKSLLHSNGITYVYWYQQKPGQPPKLLIYRMSNLASGVPDRFSGSGSGTDFTLTISSLQAEDVAVYHCGQLLENPYTFGQGTKLEIK | 0.0619 µg/mL |

Exercise: What CAR-J2 EC50 (PGLALA-CAR-J activation, L363 target cells) value was documented for this binder, P1AE5745 (antibody, V domains shown) VH: QVQLVESGGGVVQPGRSLRLSCAASGFSFSNYGMAWVRQAPGKGLEWVASISTGGGNTYYADSVKGRFTISRDNSKNTLYLQMNSLRAEDTAVYYCTRHDRGGLYWGQGTMVTVSS VL: DIVMTQSPLSLPVTPGEPASISCRSSKSLLHSNGITYVYWYLQKPGKSPQVLIYRMSNLASGVPDRFSGSGSGTDFTLKISRVEAEDVGVYHCGQLLENPYTFGQGTKLEIK ?
Key: 0.00162 µg/mL

Exercise: Would you kindly repeat that for P1AE5764 (antibody, V domains shown) VH: EVQLVESGGGLVQPGGSLRLSCAASGFSFSNYGMAWVRQAPGKGLEWVASISTGGGNTYYADSVKGRFTISRDNAKNTLYLQMNSLRAEDTAVYYCTRHDRGGLYWGQGTMVTVSS VL: EIVLTQSPGTLSLSPGERATLSCRASKSLLHSNGITYVYWYQQKPGQAPRLLIYRMSNLASGIPDRFSGSGSGTDFTLTISRLEPEDFAVYHCGQLLENPYTFGQGTKLEIK ?
Key: 0.0782 µg/mL
